Assay: Absorption maximum after colour development in a photographic silver halide layer according to Use Example I
Type: physicochemical
Conditions: pyrazolone coupling agents
Description: The compounds of the formulae which follow are prepared according to methods which are in themselves known, from the corresponding 4-equivalentcoupling agents (the corresponding compounds with hydrogen in the position marked with *, in place of the substituents drawn). With regard to methods of manufacture, compare DT-OS or DT-AS 1,236,332, 2,043,271, 1,547,672 or 1,187,477. Next to the formula, the absorption maximum in nm is specified in each case (see footnote to Table I). ##SPC8## […]
Some compounds, each annotated with its measured Abs.max., first of two maxima (subsidiary maximum).
Respond with the bare value in nm.

Solved entries:
compound	value_observed
CCCCOP(=O)(CCCOc1cccc(NC2=NN(c3c(Cl)cc(Cl)cc3Cl)C(=O)C2)c1)OCCCC [(409)]	426
CCCCOP(=O)(CCCOc1cc(OCCCP(=O)(OCCCC)OCCCC)cc(C(=O)Nc2cccc(C(=O)NC3=NN(c4c(Cl)cc(OC)cc4Cl)C(=O)C3)c2)c1)OCCCC [(266)]	436

Could you now look at the following compound, please?
Lookup: Entry CCOP(=O)(CCCOc1cccc(C(=O)Nc2ccc(NC3=NN(c4ccccc4)C(=O)C3)cc2)c1)OCC [(416)] : reported Abs.max., first of two maxima (subsidiary maximum) = ?
Found: 426

###

Experiment: Absorption maximum after colour development in a photographic silver halide layer according to Use Example I
Assay type: physicochemical
experimental_readout: Abs.max. (single maximum) (nm)
The response must be a number in nm with no trailing unit.

Example cases with answers are listed next.
compound	unit_abbreviation	Abs.max. (single maximum)
CCCCOP(=O)(CCCc1ccc(NC(=O)c2ccc(OC)c(NC(=O)CC(=O)c3ccc(OC)cc3)c2)cc1)OCCCC [(126)]	nm	448
CCCCOP(=O)(CCCOc1cc(OCCCP(=O)(OCCCC)OCCCC)cc(C(=O)Nc2cccc(NC(=O)CC(=O)C(C)(C)C)c2)c1)OCCCC [(115)]	nm	435
CCOP(=O)(CC(=O)Nc1cccc(NC(=O)CC(=O)c2ccccc2)c1)OCC [(106)]	nm	442

Lookup: // lookup Abs.max. (single maximum) for COc1ccc(C(=O)C(Cl)C(=O)Nc2ccc(OP(=O)(Oc3ccccc3)C(C)(C)C)cc2)cc1 (centres unmarked) [(146)]
Found: 437

Lookup: Recorded Abs.max. (single maximum) of CCOP(=O)(OCC)C(C)(C)NC(=O)c1cccc(NC(=O)CC(=O)c2ccc([N+](=O)[O-])cc2)c1 [(110)] , please.
Found: 440

Lookup: Report Abs.max. (single maximum) for CCCCOP(=O)(Cc1ccc(CP(=O)(OCCCC)OCCCC)c(NC(=O)c2ccc(OC)c(NC(=O)CC(=O)c3ccccc3OCC)c2)c1)OCCCC [(137)] please.
Found: 425

Lookup: So what's the measured Abs.max. (single maximum) for this one? CCOP(=O)(OCC)C(C)(C)NC(=O)c1cccc(NC(=O)CC(=O)c2ccccc2)c1 [(108)]
Found: 440

Lookup: Fill in the blank: the reported Abs.max. (single maximum) of CCOP(=O)(CCCN(C)c1cccc(NC(=O)CC(=O)c2ccccc2)c1)OCC [(104)] is ____.
Found: 435
